B1: CPEB3 Ribozyme (parent)
chain: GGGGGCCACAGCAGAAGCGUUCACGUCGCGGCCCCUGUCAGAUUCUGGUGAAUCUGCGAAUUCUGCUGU

variants of: B1; assay: self-cleavage, relative activity (ratio to wild type); higher = more cleavage; co-transcriptional
# self-cleavage listing for each entry below
Just the number, please, no unit after it.

So, C33G C35G ? Its self-cleavage was 0.318

So, A13G G37A ? Its self-cleavage was 0.172

So, G19A G58C ? Its self-cleavage was 0.168

So, C34G G65C ? Its self-cleavage was 0.331

So, G11A U26A ? Its self-cleavage was 0.676

So, G4U C34U ? Its self-cleavage was 0.361

So, G25A C29U ? Its self-cleavage was 0.163

So, G1A C45G ? Its self-cleavage was 0.0789

So, G5C G48A ? Its self-cleavage was 0.217

So, G48A A59C ? Its self-cleavage was 0.83

So, G25A C39U ? Its self-cleavage was 0.229

So, C45G A51C ? Its self-cleavage was 1.01

So, G25C G68U ? Its self-cleavage was 0.21

So, G4C A13G ? Its self-cleavage was 0.472

So, A40U U46C ? Its self-cleavage was 0.716

So, G25C A52G ? Its self-cleavage was 0.174

So, G5A C33G ? Its self-cleavage was 0.136

So, A42G U46G ? Its self-cleavage was 0.941

So, A15C U64G ? Its self-cleavage was 0.91

So, G2A C29U ? Its self-cleavage was 0.0474

So, G3C G25C ? Its self-cleavage was 0.0602

So, G5C G68A ? Its self-cleavage was 0.473

So, A15C U61A ? Its self-cleavage was 0.468

So, A15C A51C ? Its self-cleavage was 0.752

So, C12U G48U ? Its self-cleavage was 1.01

So, G31U U38A ? Its self-cleavage was 0.537

So, G17U U53A ? Its self-cleavage was 0.265

So, U44G U46G ? Its self-cleavage was 0.909
